Let's look at some compounds and their measured pEC50.
Experimental Target: Protein S100-A4 (Homo sapiens, UniProt P26447)
Sequence (P26447 whole entry, the tested form may be a part): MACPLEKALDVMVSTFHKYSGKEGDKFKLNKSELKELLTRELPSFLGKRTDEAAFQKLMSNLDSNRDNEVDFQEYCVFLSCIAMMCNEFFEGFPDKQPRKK
Procedure Details: Binding affinity to S100A4 (unknown origin) assessed as inhibition of S100A4/myosin-2A interaction using fluorescein-tagged myosin-2A peptide (1908 to 1923 residues) by fluorescence polarization assay
pEC50: −log10 of the molar value.

{"columns": ["Compound", "pEC50"],
 "data": [
  ["O=C1C(=O)c2cc(Cl)ccc2-c2ccccc21", 5.74],
  ["CC1=C(SCC(=O)O)C(=O)c2ccccc2C1=O", 4.41],
  ["CC(=O)N(C1=C(Cl)C(=O)c2ccccc2C1=O)c1ccc(F)cc1", 4.02],
  ["CCSC1=CC(=O)c2ccccc2C1=O", 4.66],
  ["O=C1C(=O)c2cccc([N+](=O)[O-])c2-c2ccccc21", 5.60],
  ["CC1=C(SCc2ccccc2)C(=O)c2ccccc2C1=O", 4.02],
  ["O=C1C(=O)c2cc(Br)cc([N+](=O)[O-])c2-c2ccc(Br)cc21", 5.08],
  ["CSC1=C(C)C(=O)c2ccccc2C1=O", 4.19],
  ["O=C1C(=O)c2ccccc2-c2ccccc21 [9,10-PHENANTHRENEQUINONE]", 5.42],
  ["COC1=C(N)C(=O)c2ncccc2C1=O", 4.92],
  ["O=C1C(=O)c2cccc([N+](=O)[O-])c2-c2c1cccc2[N+](=O)[O-]", 4.80],
  ["CC1=C(SCCO)C(=O)c2ccccc2C1=O", 4.21],
  ["CC(=O)NC1=C(Cl)C(=O)c2ncccc2C1=O", 5.05],
  ["CC(=O)NC1=C(Sc2ccc(Cl)cc2)C(=O)c2ccccc2C1=O", 4.03],
  ["Cc1ccc2c(n1)C(=O)C=CC2=O", 5.07],
  ["NC1=C(Br)C(=O)c2ncccc2C1=O", 4.80],
  ["O=C1C=C(NCCc2cc(Br)c(O)c(Br)c2)C(=O)c2ncccc21", 4.04],
  ["O=C1C(=O)c2cc(Br)ccc2-c2ccc(Br)cc21", 4.72],
  ["O=C1C(NCCCN2CCCCC2)=CC(=O)c2ncccc21", 4.07],
  ["CC(=O)c1ccc2c(c1)-c1ccccc1C(=O)C2=O", 5.66],
  ["O=C1C(=C2C=Nc3ccccc32)Nc2ccc(Br)cc21", 4.51],
  ["CSC1=CC(=O)c2ccccc2C1=O", 4.03],
  ["O=C1C=C(SCCO)C(=O)c2ccccc21", 4.80],
  ["O=C1C=CC(=O)c2ncccc21", 4.80],
  ["CC(=O)NC1=CC(=O)c2cccnc2C1=O", 4.74],
  ["CCSC1=C(C)C(=O)c2ccccc2C1=O", 4.29],
  ["O=C1C(=C(Br)Br)c2ccccc2-c2ccccc21", 4.46],
  ["Cc1ccc(S(=O)(=O)N/N=C2\\C(=O)c3ccccc3-c3ccccc32)cc1", 5.08],
  ["NC1=C(Cl)C(=O)c2ncccc2C1=O", 4.87],
  ["O=C1NC(=S)S/C1=C/c1cc([N+](=O)[O-])ccc1Sc1ccc(C(F)(F)F)cn1", 4.34],
  ["CCCCN(CCCC)CCCNC1=CC(=O)c2ncccc2C1=O", 4.15],
  ["O=C1C(Cl)=C(Cl)C(=O)c2ncccc21", 4.85],
  ["Nc1ccc2c(c1)C(=O)C(=O)c1ccccc1-2", 5.80],
  ["Nc1c2c(=O)[nH]c(=O)c2c(N)c2c(=O)c3ccccc3c(=O)c12", 4.44],
  ["O=C1C(=O)c2cc([N+](=O)[O-])ccc2-c2ccc([N+](=O)[O-])cc21", 4.74],
  ["O=C1C(NCCF)=C(Cl)C(=O)c2ncccc21", 4.54],
  ["CCCCSC1=CC(=O)c2ccccc2C1=O", 4.40],
  ["O=C1c2ccccc2C(=O)C(Cl)C1Cl (stereo unspecified)", 4.57],
  ["O=C1CC(Cl)C(=O)c2ccccc21 (stereo unspecified)", 4.17],
  ["NC1=CC(=O)c2ncccc2C1=O", 4.47],
  ["O=C(O)CCSC1=CC(=O)c2ccccc2C1=O", 4.68],
  ["Cc1ccc(C(=O)OC2=CC(=O)c3ccccc3C2=O)cc1", 4.19],
  ["O=C1C2=C(SCCS2)C(=O)c2ccccc21", 5.66]
]}

Origin of values: ChEMBL document CHEMBL4418481
